- Tested on: winter barley
- assay.info: Test E winter barley
- Type: in vivo, Hordeum vulgare
- condition.summary: Preemergence, Rate 125 g/ha; 0 to 100 scale (0 no effect, 100 complete control)
value.type: Plant response rating, Barley (winter)
Respond numerically, and do not add a unit to the figure.

compound	Plant response rating, Barley (winter)
Cc1nsc(C)c1-n1c(=O)on(C(=O)N(c2ccc(F)cc2F)C(C)C)c1=O	20
CC(C)N(C(=O)n1oc(=O)n(C(C)C)c1=O)c1ccccc1	10

Given item CC(C)N(C(=O)n1oc(=O)n(CC2CCOC2)c1=O)c1ccc(F)cc1 (stereo not shown) , the value recorded as its Plant response rating, Barley (winter) is 35

Given item CC(C)N(C(=O)n1oc(=O)n(CCC2OCCO2)c1=O)c1ccc(F)cc1 , the value recorded as its Plant response rating, Barley (winter) is 20
